Give UI for every item shown.
tested on: Rattus norvegicus; assay: Ulcerogenicity in Wistar rat assessed as lesion score at 100 mg/kg, po after 6 hrs; type: toxicity, organism-based; parameters: dose 100 mg/kg, route oral; details: in vivo
Kindly answer with a numeric value in mm, unit omitted.

## Input Read the entry CCCCCOc1cc(C(C)=O)ccc1N and write its reported UI.
## Output 2

## Input Note down UI recorded for CC(=O)c1ccc(NS(C)(=O)=O)c(OC2CCCCC2)c1
## Output 3

## Input Using the record for CCCCCCOc1cc(C(C)=O)ccc1N , state its measured UI.
## Output 3

## Input Give the reported value of UI for this record: CCCCOc1cc(C(C)=O)ccc1NS(C)(=O)=O
## Output 5

## Input In one line, give reported UI of the entry CC(=O)c1ccc(N)c(OC2CCCCC2)c1 .
## Output 3

## Input Answer with the recorded UI of COc1ccc2c(c1)c(CC(=O)O)c(C)n2C(=O)c1ccc(Cl)cc1 only.
## Output 22.3
